test: Percent purine synthesized in human B lymphoblast WI-L2 cells was determined; type: functional; parameters: concentration or dose not given beside the values
Items are presented alongside their recorded Activity.

// field: Activity; key: NC(=O)c1nc(N)n(C2O[C@H](CO)[C@@H](O)[C@H]2O)n1 (stereo not given in full) ; value = 88%

// field: Activity; key: Cl.N=C(N)c1ncn(C2OC(CO)C(O)[C@@H]2O)n1 (stereo not given in full) ; value = 98%

// field: Activity; key: Cl.N=C(N)c1nc(N)n(C2OC(CO)C(O)[C@@H]2O)n1 (stereo not given in full) ; value = 82%

// field: Activity; key: C[C@H]1OC(n2nc(C(=N)N)nc2N)[C@H](O)[C@@H]1O (stereo not given in full) ; value = 90%

// field: Activity; key: NC(=O)c1ncn([C@@H]2O[C@H](CO)[C@@H](O)[C@H]2O)n1 [RIBAVIRIN] ; value = 155%
